- Test system: Jurkat
- experimentalDetails: mean cell size (FSC-A) relative to DMSO control (fraction of control); higher = larger cells
- conditionContext: 48 h
Where a name gives a salt, the structure may show the parent alone.
Response key: 1.0 means mean cell size >= 1; 0.0 means mean cell size < 1.

Asked: Record CC(C)N1CCN(c2ccc(OCC3COC(Cn4cncn4)(c4ccc(Cl)cc4Cl)O3)cc2)CC1 (configuration not stated) [Terconazole] (concentration: 25 µM) ; criterion: mean cell size no lower than 1. Met?
Given back: 0.0

Asked: Record COc1ccc(CC2c3cc(OC)c(OC)cc3CC[N+]2(C)CCC(=O)OCCCCCOC(=O)CC[N+]2(C)CCc3cc(OC)c(OC)cc3C2Cc2ccc(OC)c(OC)c2)cc1OC (configuration not stated) [Atracurium Besylate] (concentration: 25 µM) ; criterion: mean cell size no lower than 1. Met?
Given back: 1.0

Asked: Record CC1(C)O[C@@H]2C[C@H]3[C@@H]4C[C@H](F)C5=CC(=O)C=C[C@]5(C)[C@@]4(F)[C@@H](O)C[C@]3(C)[C@]2(C(=O)CO)O1 [Fluocinolone Acetonide] (concentration: 25 µM) ; criterion: mean cell size no lower than 1. Met?
Given back: 0.0

Asked: Record N[C@@H](C(=O)N[C@@H]1C(=O)N2C(C(=O)O)=C(Cl)CS[C@H]12)c1ccccc1 [Cefaclor] (concentration: 25 µM) ; criterion: mean cell size no lower than 1. Met?
Given back: 0.0

Asked: Record COc1cc(C(=O)NS(=O)(=O)c2ccccc2C)ccc1Cc1cn(C)c2ccc(NC(=O)OC3CCCC3)cc12 [Zafirlukast] (concentration: 25 µM) ; criterion: mean cell size no lower than 1. Met?
Given back: 0.0

Asked: Record CCN(CCO)CCCC(C)Nc1ccnc2cc(Cl)ccc12 (configuration not stated) [Hydroxychloroquine Sulfate] (concentration: 25 µM) ; criterion: mean cell size no lower than 1. Met?
Given back: 0.0

Asked: Record N=C(N)c1ccc(OCCCCCOc2ccc(C(=N)N)cc2)cc1 [Pentamidine Isethionate] (concentration: 25 µM) ; criterion: mean cell size no lower than 1. Met?
Given back: 0.0

Asked: Record CS(=O)(=O)OCCCCOS(C)(=O)=O [Busulfan] (concentration: 25 µM) ; criterion: mean cell size no lower than 1. Met?
Given back: 1.0

Asked: Record CC(C)C[C@H](NC(=O)[C@@H](COC(C)(C)C)NC(=O)[C@H](Cc1ccc(O)cc1)NC(=O)[C@H](CO)NC(=O)[C@H](Cc1c[nH]c2ccccc12)NC(=O)[C@H](Cc1cnc[nH]1)NC(=O)[C@@H]1CCC(=O)N1)C(=O)N[C@@H](CCCNC(=N)N)C(=O)N1CCC[C@H]1C(=O)NNC(N)=O [Goserelin Acetate] (concentration: 25 µM) ; criterion: mean cell size no lower than 1. Met?
Given back: 0.0

Asked: Record Nc1ccc(S(=O)(=O)c2ccc(N)cc2)cc1 [Dapsone] (concentration: 25 µM) ; criterion: mean cell size no lower than 1. Met?
Given back: 0.0

----------
- Tested on: Jurkat
- experimentalDetails: cell count relative to DMSO control (fraction of control); higher = more cells (less growth inhibition)
- conditionContext: 48 h
Structures can show the parent of a compound that is named as a salt.
Assign cell count to each entry below.
Keep the answer to the number alone.

Asked: cell count of C#C[C@]1(O)CC[C@H]2[C@@H]3CCC4=CC(=O)CC[C@@H]4[C@H]3C(=C)C[C@@]21CC [Etonogestrel] (concentration: 25 µM) on Jurkat?
Given back: 0.557

Asked: cell count of CC12CC3CC(C)(C1)CC(N)(C3)C2 [Memantine·HCl] (concentration: 25 µM) on Jurkat?
Given back: 0.797

Asked: cell count of CN(C)/N=N/c1[nH]cnc1C(N)=O [Dacarbazine] (concentration: 25 µM) on Jurkat?
Given back: 0.836

Asked: cell count of O=C(CCCN1CCC(O)(c2ccc(Cl)cc2)CC1)c1ccc(F)cc1 [Haloperidol] (concentration: 25 µM) on Jurkat?
Given back: 0.609

Asked: cell count of CO[C@H]1O[C@@H]2O[C@@]3(C)CC[C@H]4[C@H](C)CC[C@@H]([C@H]1C)[C@@]24OO3 [Artemether] (concentration: 25 µM) on Jurkat?
Given back: 0.632

Asked: cell count of C=C1/C(=C\C=C2/CCC[C@]3(C)[C@@H]([C@H](C)/C=C/[C@@H](O)C4CC4)CC[C@@H]23)C[C@@H](O)C[C@@H]1O [Calcipotriene] (concentration: 25 µM) on Jurkat?
Given back: 0.654

----------
Assign mean cell size to each entry below.
- Test system: Jurkat
- experimentalDetails: mean cell size (FSC-A) relative to DMSO control (fraction of control); higher = larger cells
- conditionContext: 48 h
Where a name gives a salt, the structure may show the parent alone.
Keep the answer to the number alone.

Asked: // query mean cell size value for entry C#Cc1cccc(Nc2ncnc3cc(OCCOC)c(OCCOC)cc23)c1 [Erlotinib] (concentration: 25 µM)
Given back: 0.838

Asked: // query mean cell size value for entry NC(=O)NO [Hydroxyurea] (concentration: 25 µM)
Given back: 0.958

Asked: // query mean cell size value for entry CC1=C(CC(=O)O)c2cc(F)ccc2/C1=C\c1ccc([S+](C)[O-])cc1 (stereo not drawn) [Sulindac] (concentration: 25 µM)
Given back: 0.988

Asked: // query mean cell size value for entry Cn1c(=O)c2c(ncn2C)n(C)c1=O [Caffeine] (concentration: 25 µM)
Given back: 0.986

Asked: // query mean cell size value for entry CO[C@H]1C[C@@H]2CC[C@@H](C)[C@@](O)(O2)C(=O)C(=O)N2CCCC[C@H]2C(=O)O[C@H]([C@H](C)C[C@@H]2CC[C@@H](O)[C@H](OC)C2)CC(=O)[C@H](C)/C=C(\C)[C@@H](O)[C@@H](OC)C(=O)[C@H](C)C[C@H](C)/C=C/C=C/C=C/1C [Sirolimus (Rapamycin)] (concentration: 2.5 µM)
Given back: 0.758

Asked: // query mean cell size value for entry CC(C)NCC(O)COc1ccc(CCOCC2CC2)cc1 (stereo not drawn) [Betaxolol·HCl] (concentration: 25 µM)
Given back: 1.01

Asked: // query mean cell size value for entry CCOC(=O)O[C@]1(C(=O)OCCl)CC[C@H]2[C@@H]3CCC4=CC(=O)C=C[C@]4(C)[C@H]3[C@@H](O)C[C@@]21C [Loteprednol Etabonate] (concentration: 25 µM)
Given back: 0.892

Asked: // query mean cell size value for entry NC(=O)c1cn(Cc2c(F)cccc2F)nn1 [Rufinamide] (concentration: 25 µM)
Given back: 0.968

----------
- Test system: Jurkat
- experimentalDetails: cell count relative to DMSO control (fraction of control); higher = more cells (less growth inhibition)
- conditionContext: 48 h
Structures can show the parent of a compound that is named as a salt.
Response key: 1 means cell count >= 0.7; -1 means cell count < 0.7.

Asked: Record CN(C)c1ccc(O)c2c1C[C@H]1C[C@H]3[C@H](N(C)C)C(=O)C(C(N)=O)=C(O)[C@@]3(O)C(=O)C1=C2O [Minocycline] (concentration: 2.5 µM) ; criterion: cell count no lower than 0.7. Met?
Given back: 1

Asked: Record CC(=O)OC(C)C[N+](C)(C)C (configuration not stated) [Methacholine Chloride] (concentration: 25 µM) ; criterion: cell count no lower than 0.7. Met?
Given back: 1

Asked: Record COc1cc2nc(N3CCN(C(=O)c4ccco4)CC3)nc(N)c2cc1OC [Prazosin·HCl] (concentration: 2.5 µM) ; criterion: cell count no lower than 0.7. Met?
Given back: -1

Asked: Record CCCCc1nc(Cl)c(CO)n1Cc1ccc(-c2ccccc2-c2nnn[nH]2)cc1 [Losartan Potassium] (concentration: 25 µM) ; criterion: cell count no lower than 0.7. Met?
Given back: -1

Asked: Record OCc1cc(C(O)CNCCCCCCOCCCCc2ccccc2)ccc1O (configuration not stated) [Salmeterol] (concentration: 25 µM) ; criterion: cell count no lower than 0.7. Met?
Given back: -1

Asked: Record Cc1ccc(O)c([C@H](CCN(C(C)C)C(C)C)c2ccccc2)c1 [Tolterodine Tartrate] (concentration: 25 µM) ; criterion: cell count no lower than 0.7. Met?
Given back: 1

Asked: Record N=C(N)NC(=O)c1nc(Cl)c(N)nc1N [Amiloride·HCl·2H2O] (concentration: 25 µM) ; criterion: cell count no lower than 0.7. Met?
Given back: -1

----------
Assign mean cell size to each entry below.
- System: Jurkat
- experimentalDetails: mean cell size (FSC-A) relative to DMSO control (fraction of control); higher = larger cells
- conditionContext: 48 h
Counter-ions that a name gives are not always drawn.
Keep the answer to the number alone.

Asked: mean cell size of Cc1cn[nH]c1 [Fomepizole] (concentration: 25 µM) on Jurkat?
Given back: 0.99

Asked: mean cell size of CO/N=C(\C(=O)N[C@@H]1C(=O)N2C(C(=O)O)=C(COC(N)=O)CS[C@H]12)c1ccco1 [Cefuroxime·Na] (concentration: 25 µM) on Jurkat?
Given back: 0.994

Asked: mean cell size of CC[C@H]1OC(=O)[C@H](C)[C@@H](O[C@H]2C[C@@](C)(OC)[C@@H](O)[C@H](C)O2)[C@H](C)[C@@H](O[C@@H]2O[C@H](C)C[C@H](N(C)C)[C@H]2O)[C@](C)(O)C[C@@H](C)CN(C)[C@H](C)[C@@H](O)[C@]1(C)O [Azithromycin] (concentration: 25 µM) on Jurkat?
Given back: 0.948

Asked: mean cell size of Nc1nc(N)c2nc(-c3ccccc3)c(N)nc2n1 [Triamterene] (concentration: 25 µM) on Jurkat?
Given back: 1.21

Asked: mean cell size of Nc1ccc(S(N)(=O)=O)cc1 [Sulfanilamide] (concentration: 25 µM) on Jurkat?
Given back: 0.925

Asked: mean cell size of COc1ccc2[nH]c([S@@+]([O-])Cc3ncc(C)c(OC)c3C)nc2c1 [Esomeprazole Potassium] (concentration: 25 µM) on Jurkat?
Given back: 0.98

Asked: mean cell size of Cc1ccc(N(CC2=NCCN2)c2cccc(O)c2)cc1 [Phentolamine·HCl] (concentration: 25 µM) on Jurkat?
Given back: 1.09

Asked: mean cell size of C=C[C@H]1CN2CC[C@H]1C[C@@H]2[C@@H](O)c1ccnc2ccc(OC)cc12 [Quinidine·HCl·H2O] (concentration: 25 µM) on Jurkat?
Given back: 0.923

Asked: mean cell size of Cc1ccc(C)c(OCCCC(C)(C)C(=O)O)c1 [Gemfibrozil] (concentration: 25 µM) on Jurkat?
Given back: 0.956

Asked: mean cell size of COc1ccc2c3c1O[C@H]1C[C@@H](O)C=C[C@@]31CCN(C)C2 [Galantamine·HBr] (concentration: 25 µM) on Jurkat?
Given back: 0.976

Asked: mean cell size of Nc1ccn([C@@H]2O[C@H](CO)[C@@H](O)[C@@H]2O)c(=O)n1 [Cytarabine] (concentration: 25 nM) on Jurkat?
Given back: 1.18

Asked: mean cell size of COc1ccccc1Oc1c(NS(=O)(=O)c2ccc(C(C)(C)C)cc2)nc(-c2ncccn2)nc1OCCO [Bosentan] (concentration: 25 µM) on Jurkat?
Given back: 0.975

Asked: mean cell size of CCC(=O)OC(OP(=O)(CCCCc1ccccc1)CC(=O)N1C[C@H](C2CCCCC2)C[C@H]1C(=O)O)C(C)C (stereo partly specified) [Fosinopril·Na] (concentration: 25 µM) on Jurkat?
Given back: 0.974

Asked: mean cell size of COC1=CC(=O)C[C@@H](C)[C@]12Oc1c(Cl)c(OC)cc(OC)c1C2=O [Griseofulvin] (concentration: 2.5 µM) on Jurkat?
Given back: 0.975

Asked: mean cell size of Cc1onc(-c2ccccc2)c1C(=O)N[C@@H]1C(=O)N2[C@@H]1SC(C)(C)[C@@H]2C(=O)O [Oxacillin·Na] (concentration: 25 µM) on Jurkat?
Given back: 0.937

Asked: mean cell size of CN(C)CCCC1(c2ccc(F)cc2)OCc2cc(C#N)ccc21 (stereo unspecified) [Citalopram·HBr] (concentration: 25 µM) on Jurkat?
Given back: 0.951

Asked: mean cell size of NC(=O)c1ncn([C@@H]2O[C@H](CO)[C@@H](O)[C@H]2O)n1 [Ribavirin] (concentration: 25 µM) on Jurkat?
Given back: 0.998

Asked: mean cell size of Cc1ccc(/C(=C\CN2CCCC2)c2cccc(/C=C/C(=O)O)n2)cc1 [Acrivastine] (concentration: 5 µM) on Jurkat?
Given back: 1.06

Asked: mean cell size of CC(C)[N+]1(C)[C@@H]2CC[C@H]1CC(OC(=O)C(CO)c1ccccc1)C2 (stereo partly specified) [Ipratropium·Br] (concentration: 25 µM) on Jurkat?
Given back: 1.01

Asked: mean cell size of CC(=O)CCCCn1c(=O)c2c(ncn2C)n(C)c1=O [Pentoxifylline] (concentration: 25 µM) on Jurkat?
Given back: 0.977

Asked: mean cell size of CCC(=O)O[C@]1(C(=O)SCF)[C@H](C)C[C@H]2[C@@H]3C[C@H](F)C4=CC(=O)C=C[C@]4(C)[C@@]3(F)[C@@H](O)C[C@@]21C [Fluticasone Propionate] (concentration: 25 µM) on Jurkat?
Given back: 0.967

Asked: mean cell size of CCCc1nc2c(C)cc(-c3nc4ccccc4n3C)cc2n1Cc1ccc(-c2ccccc2C(=O)O)cc1 [Telmisartan] (concentration: 25 µM) on Jurkat?
Given back: 0.951

Asked: mean cell size of NCCCC(N)(C(=O)O)C(F)F (stereo unspecified) [Eflornithine·HCl] (concentration: 25 µM) on Jurkat?
Given back: 0.958

Asked: mean cell size of CC(=O)O[C@]1(C(C)=O)CC[C@H]2[C@@H]3C=C(C)C4=CC(=O)CC[C@]4(C)[C@H]3CC[C@@]21C [Megestrol Acetate] (concentration: 25 µM) on Jurkat?
Given back: 0.982

Asked: mean cell size of Clc1ccc(C(Cn2ccnc2)OCc2csc3c(Cl)cccc23)c(Cl)c1 (stereo unspecified) [Sertaconazole] (concentration: 25 µM) on Jurkat?
Given back: 1.04

Asked: mean cell size of C[N+](C)(C)CCOC(N)=O [Carbachol (Carbamylcholine ) Chloride] (concentration: 25 µM) on Jurkat?
Given back: 0.962

Where do the numbers come from? From the supplement of paper PMC4709259.
